Source of measurements: ChEMBL document CHEMBL1142496

- MEASUREMENT DESCRIPTION: Stability in aqueous 25 mM phosphate buffer at pH 7.6 assessed as hydrolysis half life
- Assay type: physicochemical
Kindly apply the following: 1 if half-life is less than 1 h, 0 in every other case.

1) Cc1cn([C@H]2C=C[C@@H](COP3(=O)OCc4cc(C=O)cc(C(C)(C)C)c4O3)O2)c(=O)[nH]c1=O (stereo not given in full) ... 0
2) Cc1cn([C@H]2C=C[C@@H](COP3(=O)OCc4cc(C(OC(=O)C(C)C)OC(=O)C(C)C)cc(C(C)(C)C)c4O3)O2)c(=O)[nH]c1=O (stereo not given in full) ... 0
3) CC(=O)OC(OC(C)=O)c1cc2c(c(C(C)(C)C)c1)OP(=O)(OC[C@@H]1C=C[C@H](n3cc(C)c(=O)[nH]c3=O)O1)OC2 (stereo not given in full) ... 0
4) Cc1cc(C=O)c2c(c1)COP(=O)(OC[C@@H]1C=C[C@H](n3cc(C)c(=O)[nH]c3=O)O1)O2 (stereo not given in full) ... 1

Does the reported half-life of the following compound sit strictly below 1 h? Cc1cn([C@H]2C=C[C@@H](COP3(=O)OCc4cc(C(C)(C)C)cc(C=O)c4O3)O2)c(=O)[nH]c1=O (stereo not given in full)
1
